Tested on: MDA-N
Test: NCI tumour cell line growth inhibition, 48 h
Activity calls are given as the source filed them. Rule as the data show it: active = GI50 up to about 1.1 µM and inactive = higher.
property.label: GI50

Sample records with GI50:
O=C1NCCN1/N=C/c1c(Cl)n(-c2ccccc2)c2ccccc12: 9.25 µM (inactive)
NC(=S)NS(=O)(=O)c1ccc(Cl)cc1: > 100 µM (inactive)
CC1CN=C(N(C(=O)Nc2ccc(Cl)cc2)c2cccc(Cl)c2)S1 (centres undefined): 24.9 µM (inactive)

Read the next record carefully.
Reported GI50 for `c1ccc(CNc2nncc3[nH]cnc23)cc1` was > 100 µM (inactive)

----------
Test system: A498
Experiment: NCI tumour cell line growth inhibition, 48 h
Calls of active or inactive are those of the source. Cut-off read from the data, not from the text of the source: active = GI50 up to about 1.1 µM and inactive = higher.
In this exercise, the only acceptable responses are 1.0 (active), 0.0 (inactive)

C=C(C(=O)O[C@H]1C/C(C)=C/CC/C(CO)=C/[C@H]2C(=O)OC(=C)[C@H]12)C(O)CO (some centres not stated): 0.0
COc1cccc2[s+]snc12: 0.0
O=C(/C=C/c1ccccc1)CC1OC(=O)c2ccccc21 (configuration not stated): 0.0

Proceed to the following item.
Kindly provide the recorded test outcome for the following molecule: O=C(CN(Cc1ccccc1)Cc1ccccc1)N1CCc2c([nH]c3ccccc23)C1c1cccnc1 (configuration not stated)
0.0
